Listed below: PBM binding z-score values for each entry.
Test system: PXR homodimer (NR concentration 270 nM)
assay info: PBM binding z-score (relative to random genomic background probes); higher = stronger binding; sequences stand for … in GC…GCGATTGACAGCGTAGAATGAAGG
Field format: numeric only.

PBM binding z-score lookup needed for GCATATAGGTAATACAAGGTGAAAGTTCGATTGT , thanks.
0.639

PBM binding z-score lookup needed for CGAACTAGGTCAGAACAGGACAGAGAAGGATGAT , thanks.
0.047

PBM binding z-score lookup needed for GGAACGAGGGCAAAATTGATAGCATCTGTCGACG , thanks.
-0.165

###

System: PPARa:RXRa (NR concentration 270 nM, RXRa partner concentration 90 nM)
assay info: PBM binding z-score (relative to random genomic background probes); higher = stronger binding; sequences stand for … in GC…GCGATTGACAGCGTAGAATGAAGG
Please enter True where PBM binding z-score is greater than or equal to 2, and False where it is lower.

Does PBM binding z-score meet or surpass 2 for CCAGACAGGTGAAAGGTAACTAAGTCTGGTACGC ?
True

Does PBM binding z-score meet or surpass 2 for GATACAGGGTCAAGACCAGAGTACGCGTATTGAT ?
True

Does PBM binding z-score meet or surpass 2 for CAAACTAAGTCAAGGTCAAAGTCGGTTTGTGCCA ?
True

###

Tested on: RARb homodimer (NR concentration 270 nM)
assay info: PBM binding z-score (relative to random genomic background probes); higher = stronger binding; sequences stand for … in GC…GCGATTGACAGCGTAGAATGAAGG
Listed below: PBM binding z-score values for each entry.

Consider the worked cases shown below.
                           seq_string    quantity_measured  obs_value
0  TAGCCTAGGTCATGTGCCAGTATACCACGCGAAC  PBM binding z-score       2.84
1  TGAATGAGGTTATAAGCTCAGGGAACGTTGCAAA  PBM binding z-score     -0.162
2  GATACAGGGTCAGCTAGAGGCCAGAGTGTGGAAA  PBM binding z-score       3.67
3  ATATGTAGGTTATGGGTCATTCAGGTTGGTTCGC  PBM binding z-score       2.97
4  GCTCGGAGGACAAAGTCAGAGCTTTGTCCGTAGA  PBM binding z-score    -0.0434
5  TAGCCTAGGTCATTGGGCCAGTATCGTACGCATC  PBM binding z-score       2.91
6  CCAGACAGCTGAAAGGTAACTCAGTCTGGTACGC  PBM binding z-score     -0.175
7  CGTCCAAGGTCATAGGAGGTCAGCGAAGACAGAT  PBM binding z-score       5.65
8  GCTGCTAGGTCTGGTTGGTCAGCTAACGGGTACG  PBM binding z-score      0.178
9  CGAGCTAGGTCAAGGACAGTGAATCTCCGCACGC  PBM binding z-score       2.95

PBM binding z-score lookup needed for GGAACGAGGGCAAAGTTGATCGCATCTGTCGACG , thanks.
1.19

PBM binding z-score lookup needed for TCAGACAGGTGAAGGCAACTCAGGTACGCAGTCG , thanks.
0.466

PBM binding z-score lookup needed for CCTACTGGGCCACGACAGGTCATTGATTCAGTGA , thanks.
2.31

PBM binding z-score lookup needed for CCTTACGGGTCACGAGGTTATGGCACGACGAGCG , thanks.
3.8

PBM binding z-score lookup needed for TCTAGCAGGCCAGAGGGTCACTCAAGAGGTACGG , thanks.
2.8

PBM binding z-score lookup needed for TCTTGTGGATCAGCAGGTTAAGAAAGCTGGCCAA , thanks.
0.366

PBM binding z-score lookup needed for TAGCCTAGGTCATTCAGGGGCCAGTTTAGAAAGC , thanks.
3.42

PBM binding z-score lookup needed for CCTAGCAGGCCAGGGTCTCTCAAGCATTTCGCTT , thanks.
-0.597

PBM binding z-score lookup needed for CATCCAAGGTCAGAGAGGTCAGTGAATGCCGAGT , thanks.
5.53

PBM binding z-score lookup needed for TCGAGTAGGTTAGGGGCTTTCAGAATGGCGTCGA , thanks.
0.146

PBM binding z-score lookup needed for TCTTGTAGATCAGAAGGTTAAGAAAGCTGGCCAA , thanks.
1.17

PBM binding z-score lookup needed for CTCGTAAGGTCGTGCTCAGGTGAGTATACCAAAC , thanks.
2.05

PBM binding z-score lookup needed for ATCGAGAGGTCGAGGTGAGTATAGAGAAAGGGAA , thanks.
2.04

###

Tested on: PXR:RXRa (NR concentration 270 nM, RXRa partner concentration 90 nM)
assay info: PBM binding z-score (relative to random genomic background probes); higher = stronger binding; sequences stand for … in GC…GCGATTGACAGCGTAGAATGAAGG
Please enter True where PBM binding z-score is greater than or equal to 1, and False where it is lower.

Take a look at these entries with their results.
                           seq_string  assigned_label
0  CTACCAAGGTGAACAAGGTCGATGATTACTATTC            True
1  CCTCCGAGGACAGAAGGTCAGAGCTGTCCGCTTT            True
2  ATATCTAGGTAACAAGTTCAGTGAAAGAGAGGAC            True

Does PBM binding z-score meet or surpass 1 for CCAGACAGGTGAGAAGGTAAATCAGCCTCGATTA ?
False

Does PBM binding z-score meet or surpass 1 for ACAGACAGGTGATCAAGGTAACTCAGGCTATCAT ?
False

Does PBM binding z-score meet or surpass 1 for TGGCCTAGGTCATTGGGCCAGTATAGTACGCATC ?
True

###

Listed below: PBM binding z-score values for each entry.
System: PPARg:RXRa 90nM:30nM, anti-RXR (NR concentration 90 nM, RXRa partner concentration 30 nM)
assay info: PBM binding z-score (relative to random genomic background probes); higher = stronger binding; sequences stand for … in GC…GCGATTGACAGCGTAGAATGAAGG
Field format: numeric only.

Consider the worked cases shown below.
>>> df
                           seq_string  obs_value
0  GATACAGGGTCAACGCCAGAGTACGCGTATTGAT        4.5
1  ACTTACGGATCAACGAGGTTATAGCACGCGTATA      0.486
2  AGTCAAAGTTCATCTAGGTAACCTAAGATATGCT       5.54
3  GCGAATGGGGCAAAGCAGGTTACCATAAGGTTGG     -0.292
4  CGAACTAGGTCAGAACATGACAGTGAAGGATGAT        3.4
5  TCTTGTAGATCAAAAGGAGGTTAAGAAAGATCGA       2.36

PBM binding z-score lookup needed for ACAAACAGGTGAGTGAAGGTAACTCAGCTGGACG , thanks.
0.229

PBM binding z-score lookup needed for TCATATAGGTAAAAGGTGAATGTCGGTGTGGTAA , thanks.
9.06

PBM binding z-score lookup needed for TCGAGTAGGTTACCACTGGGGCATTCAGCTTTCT , thanks.
0.965

PBM binding z-score lookup needed for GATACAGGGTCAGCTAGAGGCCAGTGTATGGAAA , thanks.
1.86

PBM binding z-score lookup needed for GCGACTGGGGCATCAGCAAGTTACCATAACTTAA , thanks.
0.387

PBM binding z-score lookup needed for TGTCAAACTTCAAAGGTAACGTAAGTATCCACAC , thanks.
0.841

###

Listed below: PBM binding z-score values for each entry.
Test system: VDR homodimer (NR concentration 270 nM)
assay info: PBM binding z-score (relative to random genomic background probes); higher = stronger binding; sequences stand for … in GC…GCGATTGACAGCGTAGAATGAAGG
Field format: numeric only.

Consider the worked cases shown below.
In [3]: df
Out[3]:
                           seq_string    quantity_measured  obs_value
0  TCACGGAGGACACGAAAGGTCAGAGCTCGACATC  PBM binding z-score       1.17
1  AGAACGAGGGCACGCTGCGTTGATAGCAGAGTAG  PBM binding z-score      0.888

PBM binding z-score lookup needed for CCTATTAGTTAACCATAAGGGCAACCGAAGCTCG , thanks.
0.663

PBM binding z-score lookup needed for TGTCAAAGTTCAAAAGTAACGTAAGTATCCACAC , thanks.
3.51

PBM binding z-score lookup needed for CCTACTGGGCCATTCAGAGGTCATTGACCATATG , thanks.
3.34

###

Listed below: PBM binding z-score values for each entry.
Tested on: PPARg DBDmut IVT, anti-PPARg (DBD mutation: PPARg1 K132A/R137A, NR concentration 270 nM)
assay info: PBM binding z-score (relative to random genomic background probes); higher = stronger binding; sequences stand for … in GC…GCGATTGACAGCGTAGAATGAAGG
Field format: numeric only.

Consider the worked cases shown below.
>>> print(df.to_string())
                           seq_string  obs_value
0  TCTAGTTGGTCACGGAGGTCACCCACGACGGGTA       1.25
1  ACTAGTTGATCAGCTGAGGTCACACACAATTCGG       1.68
2  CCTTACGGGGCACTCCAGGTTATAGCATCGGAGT       -1.1
3  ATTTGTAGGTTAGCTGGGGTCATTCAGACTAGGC       3.11
4  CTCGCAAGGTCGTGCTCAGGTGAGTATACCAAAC     -0.427
5  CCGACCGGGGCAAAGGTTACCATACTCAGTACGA      -1.57

Proceeding to the next sequence to report its PBM binding z-score.
PBM binding z-score lookup needed for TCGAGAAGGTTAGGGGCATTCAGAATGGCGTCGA , thanks.
-0.967
